Please go through the items and note down their GBA EC50 Ratio (vs PYY(3-36)), [35S]GTPγS.
SYSTEM: human Y2 receptor (human) (UniProt P49146)
Sequence (P49146 whole entry): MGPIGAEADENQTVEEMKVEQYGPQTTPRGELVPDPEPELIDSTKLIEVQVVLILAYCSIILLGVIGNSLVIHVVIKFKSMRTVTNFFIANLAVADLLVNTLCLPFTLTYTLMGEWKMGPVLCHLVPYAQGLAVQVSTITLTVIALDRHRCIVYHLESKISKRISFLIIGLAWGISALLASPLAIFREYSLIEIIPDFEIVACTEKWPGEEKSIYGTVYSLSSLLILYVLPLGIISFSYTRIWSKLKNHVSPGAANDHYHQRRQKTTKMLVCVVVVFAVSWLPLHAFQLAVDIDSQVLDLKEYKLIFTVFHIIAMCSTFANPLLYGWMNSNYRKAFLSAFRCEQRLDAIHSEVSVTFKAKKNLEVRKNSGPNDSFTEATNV
ASSAY_SUMMARY: cell-based or functional assay
Non-standard residues stand in square brackets, D forms with d. *: point of attachment. Cha = N[C@@H](CC1CCCCC1)C(=O)O; dPip = O=C(O)[C@H]1CCCCN1; Aib = CC(C)(N)C(=O)O; Bz = O=C(c1ccccc1)*
Numbers only.

BINDER: Ac-E[dPip]RH[Cha][Cha]NL[Aib]TRQR[Cha]-NH2 (SMILES CC(=O)N[C@@H](CCC(=O)O)C(=O)N1CCCC[C@@H]1C(=O)N[C@@H](CCCNC(=N)N)C(=O)N[C@@H](Cc1c[nH]cn1)C(=O)N[C@@H](CC1CCCCC1)C(=O)N[C@@H](CC1CCCCC1)C(=O)N[C@@H](CC(N)=O)C(=O)N[C@@H](CC(C)C)C(=O)NC(C)(C)C(=O)N[C@H](C(=O)N[C@@H](CCCNC(=N)N)C(=O)N[C@@H](CCC(N)=O)C(=O)N[C@@H](CCCNC(=N)N)C(=O)N[C@@H](CC1CCCCC1)C(N)=O)[C@@H](C)O) [Ac-[Glu23, D-Pic(2)24, Cha27,28,36, Aib31]-PYY(23-36)]
RESULT_NUMBER: 10

Consider the additional binder presented here.
Sample Bz-RH[Cha][Cha]NL[Aib]TRQR[Cha]-NH2 (SMILES CC(C)C[C@H](NC(=O)[C@H](CC(N)=O)NC(=O)[C@H](CC1CCCCC1)NC(=O)[C@H](CC1CCCCC1)NC(=O)[C@H](Cc1c[nH]cn1)NC(=O)[C@H](CCCNC(=N)N)NC(=O)c1ccccc1)C(=O)NC(C)(C)C(=O)N[C@H](C(=O)N[C@@H](CCCNC(=N)N)C(=O)N[C@@H](CCC(N)=O)C(=O)N[C@@H](CCCNC(=N)N)C(=O)N[C@@H](CC1CCCCC1)C(N)=O)[C@@H](C)O) [Benzoyl-[Cha27,28,36, Aib31]-PYY(25-36)] ; GBA EC50 Ratio (vs PYY(3-36)), [35S]GTPγS observed: 18

The values you see were collected from patent US20120172293A1.
